Reference source for all entries: patent US7807845B2

In this section, each of the molecules is paired with its reported pKi.
# target_entity: mutant HIV PR (Mutant 10) (Human immunodeficiency virus type 1 group M subtype B)
# method_notes: HIV PR inhibition assay, Mutant 10
# condition_context: read-out: Ki Mutant 10; recombinant mutant HIV PR, fluorogenic substrate, pH 6.5
pKi: −log10 of the molar value.

molecule | pKi
CC(C)CN(CC(O)C(Cc1ccccc1)NC(=O)OC1COC2OCCC12)S(=O)(=O)c1ccc2c(c1)C(=CNCC1CC1)C(=O)N2 (stereo not drawn) | > 9.00
CC(C)CN(C[C@@H](O)[C@H](Cc1ccccc1)NC(=O)O[C@H]1CO[C@H]2OCC[C@H]21)S(=O)(=O)c1ccc2c(c1)/C(=C/N(C)C)C(=O)N2 | > 9.00
CC(C)CN(CC(O)C(Cc1ccccc1)NC(=O)OC1COC2OCCC12)S(=O)(=O)c1ccc2c(c1)C(=CNCC(F)(F)C(F)(F)C(F)(F)F)C(=O)N2 (stereo not drawn) | 8.92
CCNC(C)=C1C(=O)Nc2ccc(S(=O)(=O)N(CC(C)C)CC(O)C(Cc3ccccc3)NC(=O)OC3COC4OCCC34)cc21 (stereo not drawn) | > 9.00
CC(C)CCNC=C1C(=O)Nc2ccc(S(=O)(=O)N(CC(C)C)CC(O)C(Cc3ccccc3)NC(=O)OC3COC4OCCC34)cc21 (stereo not drawn) | > 9.00
CCCC(C)NC=C1C(=O)Nc2ccc(S(=O)(=O)N(CC(C)C)CC(O)C(Cc3ccccc3)NC(=O)OC3COC4OCCC34)cc21 (stereo not drawn) | > 9.00
